Data provenance: patent EP2150620B1

- Tested on: polyphosphate-glucose phosphotransferase activity
- assayExplanation: C-6 phosphorylation of acceptors with polyphosphate by an enzymatic extract, detected by thin layer chromatography (Examples 1 and 2)
- cond: Example 2; same synthesis and detection conditions as Example 1
experimentalEndpoint: phosphorylation of the acceptor (new substance in the 24 hours-incubation medium)

>  <compound>
O=C[C@H](O)[C@H](O)[C@H](O)CO

>  <observedResult>
not phosphorylated

$$$$
>  <compound>
O=C[C@@H](O)[C@H](O)[C@H](O)[C@H](O)CO

>  <observedResult>
not phosphorylated

$$$$
>  <compound>
O=C[C@H](O)[C@@H](O)[C@@H](O)[C@H](O)CO

>  <observedResult>
not phosphorylated

$$$$
>  <compound>
O=P(O)(O)O[C@H]1O[C@H](CO)[C@@H](O)[C@H](O)[C@H]1O [α-D-glucose-1-phosphate]

>  <observedResult>
not phosphorylated

$$$$
>  <compound>
O=C(CO)[C@@H](O)[C@H](O)[C@H](O)CO

>  <observedResult>
not phosphorylated

$$$$
